settings: in methanol, 318.15 K
measuredParameter: solubility (mole fraction)
# output: bare number, no unit

Report measured solubility (mole fraction); entry is `Nc1ccc(N2CCOCC2=O)cc1`
0.0121

----------
conditions: in ethanol, 303.15 K
measuredParameter: solubility (mole fraction)
The reply should be a number, written without any unit.

Report solubility (mole fraction) for `Nc1ccc(N2CCOCC2=O)cc1`
0.00393

----------
settings: in n-propanol, 323.15 K
measuredParameter: solubility (mole fraction)

Give the value of solubility (mole fraction) reported for the following: `Nc1ccc(N2CCOCC2=O)cc1`
0.00274

----------
details: in n-propanol, 283.15 K
measuredParameter: solubility (mole fraction)
Please reply with the number alone, leaving off any unit.

// Input: `Nc1ccc(N2CCOCC2=O)cc1` . Output its solubility (mole fraction) only.
0.000404
